src = patent US10842152B2

Item-by-item account of herbicidal effect AMARE
tested on: Amaranthus retroflexus; assay: Herbicidal effect pre-emergence; assay type: in vivo; conditions: 320 g/ha, visual grading after ca. 3 weeks vs untreated controls
Measurement label: herbicidal effect AMARE (%)

>>> reported_result("O=C(Nc1nsc2c(=O)n(CC3CCCCC3)cc(Br)c12)C(F)(F)C(F)(F)F")
100
>>> reported_result("CC(=O)c1cn(CC2CCCCC2)c(=O)c2c1C(N)=NS2(=O)=O")
90
>>> reported_result("C/C(=N/OCC1CC1)c1cn(CC2CCCCC2)c(=O)c2snc(N)c12")
100
>>> reported_result("CCC(=O)Nc1nsc2c1CC(CO)N(CC1CCCCC1)C2=O (stereo not drawn)")
100
>>> reported_result("CC(C)(C)OC(=O)OC1CN(CC2CCCCC2)C(=O)c2snc(N)c21 (stereo not drawn)")
100
>>> reported_result("COCC(=O)Nc1nsc2c(=O)n(CC3CCCCC3)cc(Br)c12")
100
>>> reported_result("COCc1cc2c(NC(=O)C(F)(F)C(F)(F)F)nsc2c(=O)n1CC1CCCCC1")
100
>>> reported_result("C=Cc1cn(CC2CCCCC2)c(=O)c2snc(N)c12")
80
>>> reported_result("Nc1nsc2c(=O)n(Cc3cc(F)c(F)cc3F)cc(F)c12")
100
